The following molecules are listed with their measured T/C values.
- System: L1210 leukemia ip in BDF1 mice, survival T/C
- ASSAY: NCI In Vivo Anticancer Drug Screen. Data for tumor model L1210 Leukemia (intraperitoneal) in B6D2F1 (BDF1) mice
- TEST_SETTINGS: endpoint: mean survival time; dose: 200.0 mg/kg/injection; schedule: Q04DX003 (ip); vehicle: other; higher = longer survival
Toxic doses and inconclusive results are not listed.

| MOLECULE | T/C |
| --- | --- |
| Cc1cc2cc(C)c3cccc(C)c3c2c2c(C)cccc12 | 97 % of control |
| O=C(CSc1cc(Cl)ccc1Cl)Nc1cccc(Br)c1 | 89 % of control |
| CNc1ccccc1[N+](=O)[O-] | 97 % of control |
| C=CC(C)=O.C=CC(C)=O.C=CC(C)=O.[W] | 92 % of control |
| ClC1(Cl)C2C=CC=CCC21 (configuration not stated) | 92 % of control |
| COc1ccccc1NC(=O)O/N=C/c1ccccn1 | 90 % of control |
| O=c1[nH]ccc2n[nH]nc12 | 105 % of control |

###

- Tested on: L1210 leukemia ip in BDF1 mice, survival T/C
- ASSAY: NCI In Vivo Anticancer Drug Screen. Data for tumor model L1210 Leukemia (intraperitoneal) in B6D2F1 (BDF1) mice
- TEST_SETTINGS: endpoint: mean survival time; dose: 400.0 mg/kg/injection; schedule: Q01DX009 (ip); vehicle: saline with Tween-80; higher = longer survival
Toxic doses and inconclusive results are not listed.
The following compounds are listed with their measured T/C values.

| COMPOUND | EXPERIMENTAL_TARGET | T/C |
| --- | --- | --- |
| OCCNc1ccc(I)cc1 | L1210 leukemia ip in BDF1 mice, survival T/C | 87 % of control |
| CC(CO)(CO)NC(=O)Nc1ccccc1F | L1210 leukemia ip in BDF1 mice, survival T/C | 101 % of control |
| CC(=O)Nc1ccc(/C=C/C(=O)c2ccc([N+](=O)[O-])cc2)cc1 | L1210 leukemia ip in BDF1 mice, survival T/C | 94 % of control |
| O=C(O)COC(C[N+](=O)[O-])C(Cl)(Cl)Cl (stereo unspecified) | L1210 leukemia ip in BDF1 mice, survival T/C | 88 % of control |
| Cc1ccc(C(c2ccc(C)cc2)C(Cl)Cl)cc1 | L1210 leukemia ip in BDF1 mice, survival T/C | 107 % of control |
| CCN(C(=O)Nc1ccccc1)c1ccccc1C | L1210 leukemia ip in BDF1 mice, survival T/C | 92 % of control |

###

- Tested on: L1210 leukemia ip in BDF1 mice, survival T/C
- ASSAY: NCI In Vivo Anticancer Drug Screen. Data for tumor model L1210 Leukemia (intraperitoneal) in B6D2F1 (BDF1) mice
- TEST_SETTINGS: endpoint: mean survival time; dose: 100.0 mg/kg/injection; schedule: Q01DX009 (ip); vehicle: saline with Tween-80; higher = longer survival
Toxic doses and inconclusive results are not listed.
The following molecules are listed with their measured T/C values.

| MOLECULE | EXPERIMENTAL_TARGET | T/C |
| --- | --- | --- |
| CCCCOC(=O)C1CCCC1=O (stereo not drawn) | L1210 leukemia ip in BDF1 mice, survival T/C | 94 % of control |
| COc1ccc(Cl)cc1NC(=O)/C=C/c1ccccc1 | L1210 leukemia ip in BDF1 mice, survival T/C | 89 % of control |
| CNS(=O)(=O)c1ccc(Cl)cc1 | L1210 leukemia ip in BDF1 mice, survival T/C | 118 % of control |
| O=C(N/N=C/c1cccc(F)c1)c1ccc(Cl)cc1 | L1210 leukemia ip in BDF1 mice, survival T/C | 91 % of control |
| COc1cccc(CC(=O)NCCc2ccc(OC)c(OC)c2)c1 | L1210 leukemia ip in BDF1 mice, survival T/C | 92 % of control |
| CCCCN1C(=O)N(CCCC)C(=O)C(Br)(Br)C1=O | L1210 leukemia ip in BDF1 mice, survival T/C | 105 % of control |
| Cc1ccc(C2(C#N)CCCCC2)cc1 | L1210 leukemia ip in BDF1 mice, survival T/C | 96 % of control |
| CC1C=CC(C)C(C(=O)c2ccccc2)C1C(=O)c1ccccc1 (stereo not drawn) | L1210 leukemia ip in BDF1 mice, survival T/C | 106 % of control |
| ClCCCCOCC1CCCO1 (stereo not drawn) | L1210 leukemia ip in BDF1 mice, survival T/C | 100 % of control |
| O=C(Oc1ccccc1)C(O)CO (stereo not drawn) | L1210 leukemia ip in BDF1 mice, survival T/C | 92 % of control |
| O=C(CNC(=O)Nc1ccc(Cl)c(Cl)c1)N/N=C/c1ccccc1F | L1210 leukemia ip in BDF1 mice, survival T/C | 89 % of control |
| CC(=O)Oc1cccc(C)c1 | L1210 leukemia ip in BDF1 mice, survival T/C | 104 % of control |
| Cn1nc(NC(=O)C(F)(F)F)c2ncc(-c3ccc(Cl)cc3)nc21 | L1210 leukemia ip in BDF1 mice, survival T/C | 102 % of control |

###

The following molecules are listed with their measured T/C values.
- Test system: L1210 leukemia ip in BDF1 mice, survival T/C
- ASSAY: NCI In Vivo Anticancer Drug Screen. Data for tumor model L1210 Leukemia (intraperitoneal) in B6D2F1 (BDF1) mice
- TEST_SETTINGS: endpoint: mean survival time; dose: 400.0 mg/kg/injection; schedule: Q04DX003 (ip); vehicle: saline; higher = longer survival
- Experimental: The antitumor activity of compounds was measured in mice bearing transplantable tumors. Survival or tumor size were measured and the results are expressed as the measurement made in the treated group (T) divided by the measurement made in the vehicle treated control group (C). The tumor model used in this assay is L1210 Leukemia (intraperitoneal) in B6D2F1 (BDF1) mice
Inconclusive results and toxic doses are left out. Square brackets hold non-standard residues; d marks the D form. Peptide text beside a SMILES is read from it. ξ: configuration not given here. ξV = CC(C)C(N)C(=O)O

| MOLECULE | EXPERIMENTAL_TARGET | T/C |
| --- | --- | --- |
| O=C(CBr)N=c1cc(-c2ccc(Cl)cc2)ss1 | L1210 leukemia ip in BDF1 mice, survival T/C | 101 % of control |
| CC[N+]1(CC)CCOC(=O)C1 | L1210 leukemia ip in BDF1 mice, survival T/C | 101 % of control |
| CC(C)C(NC(=O)CNC(=O)CN)C(=O)O (stereo not drawn) (H-Gly-Gly-[ξV]-OH) | L1210 leukemia ip in BDF1 mice, survival T/C | 106 % of control |
| CCOC(=O)N(C)C1CCC1NC (stereo not given) | L1210 leukemia ip in BDF1 mice, survival T/C | 104 % of control |
| CC(=O)c1ccc2ccccc2c1O | L1210 leukemia ip in BDF1 mice, survival T/C | 88 % of control |
| CC(=O)Nc1ccc2c(c1)C(N)c1ccccc1-2 (stereo not given) | L1210 leukemia ip in BDF1 mice, survival T/C | 122 % of control |
| CC1(C)OCC2OC(N)C(O)C2O1 (stereo not given) | L1210 leukemia ip in BDF1 mice, survival T/C | 98 % of control |
| COc1ccc(CC(C(=O)O)C(Cc2ccc(OC)c(OC)c2)C(=O)O)cc1OC (stereo not given) | L1210 leukemia ip in BDF1 mice, survival T/C | 98 % of control |
| CC(=O)OC1CCCC2C(=O)c3c(c(O)c4ccccc4c3O)C(=O)C12 (stereo not given) | L1210 leukemia ip in BDF1 mice, survival T/C | 93 % of control |
| c1ccc(ON=C2c3ccccc3-c3ccccc32)cc1 | L1210 leukemia ip in BDF1 mice, survival T/C | 89 % of control |
| O=C(NCCCl)N1C(=O)NC(=O)C1(c1ccccc1)c1ccccc1 | L1210 leukemia ip in BDF1 mice, survival T/C | 98 % of control |
| COc1cc(C2=C3C(=O)OC[C@@H]3Cc3cc4c(cc32)OCO4)cc(OC)c1OC | L1210 leukemia ip in BDF1 mice, survival T/C | 101 % of control |
| O=S1(=O)C=CCC1 | L1210 leukemia ip in BDF1 mice, survival T/C | 100 % of control |
| Cc1ccccc1C(C)(O)Cc1nccn1Cc1ccccc1 (stereo not given) | L1210 leukemia ip in BDF1 mice, survival T/C | 103 % of control |
| CCOC(=O)CC(C(=O)OCC)C(OCC)OCC (stereo not given) | L1210 leukemia ip in BDF1 mice, survival T/C | 111 % of control |
| CNC(=O)C(C)(C)Br | L1210 leukemia ip in BDF1 mice, survival T/C | 107 % of control |
| C/C(=C(/CCO)SCC/C(=N/O)c1ccccc1)N(C=O)Cc1cnc(C)nc1N | L1210 leukemia ip in BDF1 mice, survival T/C | 93 % of control |
| CCS(=O)(=O)c1ccc(C)cc1 | L1210 leukemia ip in BDF1 mice, survival T/C | 98 % of control |
| NC(=O)C(O)C(Br)(Br)Br (stereo not given) | L1210 leukemia ip in BDF1 mice, survival T/C | 97 % of control |
| CC12CCC(C(Br)C1=O)C2(C)CS(=O)(=O)O (stereo not given) | L1210 leukemia ip in BDF1 mice, survival T/C | 95 % of control |
| CCCCOCCOCCOCCO | L1210 leukemia ip in BDF1 mice, survival T/C | 97 % of control |
| COC(=O)c1ccccc1OC(=O)c1ccccc1 | L1210 leukemia ip in BDF1 mice, survival T/C | 105 % of control |
| CC(C)(C)C=O | L1210 leukemia ip in BDF1 mice, survival T/C | 100 % of control |
| CCCN(CCC)CCC(=O)O | L1210 leukemia ip in BDF1 mice, survival T/C | 101 % of control |
| Cc1ccc(Cl)cc1NC(=O)Nc1ccccc1C(N)=O | L1210 leukemia ip in BDF1 mice, survival T/C | 103 % of control |
